Attribute: EC50
Target Under Test: D2 receptor (Homo sapiens, UniProt P14416)
Sequence (P14416 whole entry): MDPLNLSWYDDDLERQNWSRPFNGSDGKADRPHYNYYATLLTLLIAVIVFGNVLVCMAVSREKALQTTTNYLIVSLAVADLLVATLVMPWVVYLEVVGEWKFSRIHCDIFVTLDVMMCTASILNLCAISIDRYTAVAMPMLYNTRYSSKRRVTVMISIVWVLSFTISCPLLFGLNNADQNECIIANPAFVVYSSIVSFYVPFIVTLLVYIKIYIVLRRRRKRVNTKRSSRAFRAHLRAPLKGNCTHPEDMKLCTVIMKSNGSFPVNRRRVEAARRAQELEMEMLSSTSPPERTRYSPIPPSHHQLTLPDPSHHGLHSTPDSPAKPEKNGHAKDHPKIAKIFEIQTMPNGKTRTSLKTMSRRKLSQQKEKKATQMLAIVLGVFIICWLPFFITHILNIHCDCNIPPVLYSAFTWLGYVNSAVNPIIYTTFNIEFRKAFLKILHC
Protocol Summary: Agonist potency by [3H]thymidine incorporation (mitogenesis), D2
Condition Label: [3H]thymidine incorporation
Numbers only here, please. The scale is nM.

[[record]]
compound = "C#CCN(CCCCN1CCN(c2cccc(Cl)c2Cl)CC1)C1CCc2ccc(O)cc2C1 (stereo not shown) [Compound 19b]"
data_value = 11.8

[[record]]
compound = "CCCN(CCN1CCN(c2ccccc2)CC1)C1CCc2ccc(O)cc2C1 (stereo not shown) [Compound 15a]"
data_value = 1.59

[[record]]
compound = "CCCN(CCCCN1CCN(c2ccccc2)CC1)C1CCc2ccc(O)cc2C1 (stereo not shown) [Compound 15b]"
data_value = 3.21


Now turn to the next compound.
Summary for this compound, O=C(NCCN(CCCCN1CCN(c2ccccc2)CC1)C1CCc2ccc(O)cc2C1)c1ccccc1 (stereo not shown) [Compound 10b] : EC50 is 97.2
